Recorded Kd, one value per entry.
target: aggregated alpha-synuclein (Homo sapiens); construct: made in house; host or cells: E. coli; experiment: Saturation binding assay, protocol 2a, alpha-synuclein fibrils; details: saturation assay protocol 2a, [3H]-labeled compound; read-out: KD [nM] for aggregated alpha-synuclein
Numbers only here, please. The scale is nM.

Fc1cc(-c2cc(-c3ccc4c(c3)OCO4)n[nH]2)ccn1 ... 7

Then this compound:
Inquiry: Query (compound): Cn1nc(-c2ccc3c(c2)OCO3)cc1-c1ccnc(Br)c1 ; field requested: Kd
Reply text: 126

====

target: alpha-synuclein (sonicated fibrils) (Homo sapiens, UniProt P37840); construct: made in house; host or cells: E. coli; test: Modified competition binding assay, protocol 3b, reference ligand [3H]-compound 2; conditions: Table 5, reference ligand [3H]-compound 2 (1 nM)
Quantity: log10 of Ki (log10 of the value in nM)
In plain terms, each number is the log10 of measured Ki in nM.

Brc1cccc(-c2cc(-c3ccc4c(c3)OCO4)n[nH]2)n1 ... 0.82
FC1CCN(c2ccc(-c3cc(-c4ccnc(Br)c4)[nH]n3)cc2)CC1 ... 0.49
CNc1ccc(-c2cc(-c3cncc(Br)c3)[nH]n2)cc1 ... 0.52
CN(C)c1ccc(-c2cc(-c3cc(Cl)ncn3)[nH]n2)cc1 ... -0.30

Then this compound:
Inquiry: Query (compound): Fc1cncc(-c2cc(-c3ccc4c(c3)OCO4)n[nH]2)c1 ; field requested: log10 of Ki
Reply text: 2.28
